Test system: Hs-578T
ASSAY TEXT: NCI tumour cell line growth inhibition, 48 h
Activity calls are given as the source filed them. No stated cut-off is given here; in the data, active = GI50 up to about 1.1 µM and inactive = higher.
Measured GI50, listed per entry.
EXPERIMENTAL READOUT: GI50

# COMPOUND, REPORTED VALUE
records = [
    ("O=S1(=O)c2ccccc2N2CCCc3cc(Cl)cc1c32", "27.4 µM (inactive)"),
    ("COc1ccc(CC/N=C2\\OCc3ccccc32)cc1OC", "67 µM (inactive)"),
    ("Cc1cc(=O)c2ccccc2n1CCCCCCCCCCn1c(C)cc(=O)c2ccccc21", "23.8 µM (inactive)"),
    ("Cc1occc1C(=S)Nc1ccc(Cl)c(C(=O)OC(C)C2CC2)c1 (stereo unspecified)", "27.7 µM (inactive)"),
    ("Cc1nn(C(=O)c2ccccc2O)c2c1C(c1ccco1)SC(=N)N2 (stereo unspecified)", "6.92 µM (inactive)"),
    ("Cn1nc2c(c1N)Cc1c(nn(C)c1N)-c1ccccc1-2", "> 100 µM (inactive)"),
]

----------
Test system: SF-295
ASSAY TEXT: NCI tumour cell line growth inhibition, 48 h
The source made the active and inactive calls. No stated cut-off is given here; in the data, active = GI50 up to about 1.1 µM and inactive = higher.

# COMPOUND, TARGET OF ASSAY, GI50
data = [
    ("Oc1ccc(Br)cc1/C=N/c1cccc(C(F)(F)F)c1", "SF-295", "38.6 µM (inactive)"),
    ("CCCCCCCCC/C=C1\\CCC(CN(C)C)C1=O (stereo not drawn)", "SF-295", "3.22 µM (inactive)"),
    ("CN1CC[C@]2(c3cccc(O)c3)CC(=O)/C(=C/c3ccccc3)[C@@H]1C2.[O-][Cl+3]([O-])([O-])O", "SF-295", "3.24 µM (inactive)"),
    ("CCOC(=O)c1ccc(N2C(=O)Cc3ccccc3C2=O)cc1", "SF-295", "> 100 µM (inactive)"),
    ("CC1CC(OP(=O)(OCc2ccccc2)OCc2ccccc2)[C@@H](OCc2ccccc2)C(OCc2ccccc2)C1OCc1ccccc1 (stereo partly drawn)", "SF-295", "75.5 µM (inactive)"),
    ("COc1ccc(O[C@H](CO)C[C@@H]2COC(C)(C)O2)cc1", "SF-295", "> 100 µM (inactive)"),
    ("CCOC(=O)c1[nH]cc(C)c1-c1ccn(-c2ccccc2)c1", "SF-295", "56.4 µM (inactive)"),
    ("O=C1CC(c2ccc(Cl)cc2)=Nc2ccccc2N1", "SF-295", "86.7 µM (inactive)"),
    ("CC(=O)OCC1OC(N2C(=O)[C@@H](Oc3ccccc3)[C@H]2/C=C/c2ccccc2)C(OC(C)=O)C(OC(C)=O)C1OC(C)=O (stereo partly drawn)", "SF-295", "53.6 µM (inactive)"),
    ("CCOC(=O)NC(Nc1ccc(S(=O)(=O)Nc2ccc(OC)nn2)cc1)(C(F)(F)F)C(F)(F)F", "SF-295", "37 µM (inactive)"),
    ("CCCC1C(=O)Nc2cccc3ncn(c23)C1=O (stereo not drawn)", "SF-295", "> 100 µM (inactive)"),
    ("N=C(N)n1ncc(Cl)c(Cl)c1=O", "SF-295", "10.8 µM (inactive)"),
    ("CN(C)C[C@H]1CC[C@@H](CN(C)C)C1=O", "SF-295", "48.9 µM (inactive)"),
]

----------
Tested on: CAKI-1
ASSAY TEXT: NCI tumour cell line growth inhibition, 48 h
Activity calls are given as the source filed them. Rule as the data show it: active = GI50 up to about 1.1 µM and inactive = higher.
Outcome codes: active, inactive

# COMPOUND, ANSWER LABEL
rows = [
    ("COc1ccc(O[C@H](CO)C[C@@H]2COC(C)(C)O2)cc1", "inactive"),
    ("COC(=O)c1c/c(=N\\NC(=O)CC(=O)Nc2ccccc2OC)c2ccccc2o1", "inactive"),
    ("CC(=O)NCc1nc(C#N)c(N)o1", "inactive"),
    ("OC1CCC(COC(c2ccccc2)(c2ccccc2)c2ccccc2)O1 (centres undefined)", "inactive"),
    ("N=C(N)NS(=O)(=O)c1ccc(Nc2c3ccccc3nc3c(C(=O)NNCCO)cccc23)cc1", "active"),
    ("OCC(O)C(Cl)CCl (centres undefined)", "inactive"),
    ("COc1ccc(OC)c(NC2=NCCO2)c1", "inactive"),
    ("Cc1nc(O)nc2nc3ccc(Cl)cc3c(NCCNCCO)c12", "inactive"),
    ("N#CC(C(=O)CCC(=O)C(C#N)c1ccccc1)c1ccccc1 (centres undefined)", "inactive"),
]

----------
Tested on: SNB-75
ASSAY TEXT: NCI tumour cell line growth inhibition, 48 h
The source made the active and inactive calls. Rule as the data show it: active = GI50 up to about 1.1 µM and inactive = higher.
Measured GI50, listed per entry.

# MOLECULE, GI50
records = [
    ("Nc1nc(O)nc2c1ncn2C1OC(CO)C(O)C1O (stereo not given)", "6.18 µM (inactive)"),
    ("COc1ccc(CC/N=C2\\OCc3ccccc32)cc1OC", "68.2 µM (inactive)"),
    ("CCOC(=O)c1c(-c2ccccc2)[nH]c2ccc(Cl)cc2c1=O", "45.8 µM (inactive)"),
    ("C/C=C\\C(CC(=O)OC)CC(=O)N(CCC1CN(S(=O)(=O)C(F)(F)F)c2ccccc21)Cc1ccc(OC)cc1OC (stereo not given)", "> 100 µM (inactive)"),
    ("CN1CCN(c2nc3ccccc3nc2C(=O)c2ccc(Cl)cc2)CC1", "> 100 µM (inactive)"),
]

----------
Measured GI50, listed per entry.
Tested on: HL-60
ASSAY TEXT: NCI tumour cell line growth inhibition, 48 h
Calls of active or inactive are those of the source. No stated cut-off is given here; in the data, active = GI50 up to about 1.1 µM and inactive = higher.

# MOLECULE, GI50
records = [
    ("CN1CCN(CCCCN2c3ccccc3Sc3ccc(N=[N+]=[N-])cc32)CC1", "1.95 µM (inactive)"),
    ("CSC(SC)=C(C(=O)c1ccc(Cl)cc1)n1c(=O)sc2cc(Br)ccc21", "> 100 µM (inactive)"),
    ("CN(C)CCCNC(=O)c1cc(NS(=O)(=O)c2ccc3c(c2)C(=O)c2ccccc2C3=O)cn1C", "22.1 µM (inactive)"),
    ("COCC(O)Cn1ccnc1[N+](=O)[O-] (centres undefined)", "> 100 µM (inactive)"),
    ("NS(=O)(=O)c1c(O)c2ccccc2oc1=O", "> 100 µM (inactive)"),
    ("C[C@H]1SC(c2ccc(Cl)cc2Cl)N(NC(=O)c2ccncc2)C1=O (some centres undefined)", "28.9 µM (inactive)"),
    ("NC(=O)ON=C1CCN(Cc2ccccc2)CC1", "> 100 µM (inactive)"),
    ("CCC1CCc2c(c(=O)oc3c2cc(OC)c2cccc(OC)c23)C1 (centres undefined)", "17.5 µM (inactive)"),
    ("NCCP(=O)(O)O", "> 100 µM (inactive)"),
    ("CC1CC(OP(=O)(OCc2ccccc2)OCc2ccccc2)[C@@H](OCc2ccccc2)C(OCc2ccccc2)C1OCc1ccccc1 (some centres undefined)", "28.5 µM (inactive)"),
    ("CCOC(=O)c1c(-c2ccccc2)[nH]c2ccc(Cl)cc2c1=O", "28.2 µM (inactive)"),
    ("COc1ccc(-c2cc(-c3ccc(C)cc3)n(C3OC(COC(C)=O)C(OC(C)=O)C(OC(C)=O)C3OC(C)=O)c(=S)c2C#N)cc1 (centres undefined)", "49.3 µM (inactive)"),
    ("N/C(COc1ccc(Cl)cc1)=N\\NC(=O)c1ccncc1", "> 100 µM (inactive)"),
    ("NC(=O)c1c2c(cc3c(=O)c4ccccc4[nH]c13)CCCC2", "> 100 µM (inactive)"),
]

----------
Measured GI50, listed per entry.
Test system: BT-549
ASSAY TEXT: NCI tumour cell line growth inhibition, 48 h
Activity calls are given as the source filed them. Cut-off read from the data, not from the text of the source: active = GI50 up to about 1.1 µM and inactive = higher.
EXPERIMENTAL READOUT: GI50

# MOLECULE, REPORTED VALUE
records = [
    ("Cc1nc(O)nc2nc3ccc(Cl)cc3c(NCCNCCO)c12", "16.7 µM (inactive)"),
    ("CC(C)C/N=C(\\N)N=C(N)N", "> 100 µM (inactive)"),
    ("COc1ccc(/C=C2\\CCS(=O)(=O)c3ccccc3C2=O)cc1", "31.8 µM (inactive)"),
    ("Nc1ncnc2c1cnn2Cc1cn(COCC(O)CO)nn1 (stereo not drawn)", "> 100 µM (inactive)"),
    ("CCCC1C(=O)Nc2cccc3ncn(c23)C1=O (stereo not drawn)", "> 100 µM (inactive)"),
    ("CN(C)CCCSc1nc2c(c(=N)n1-c1ccccc1)c(=S)n(-c1ccccc1)c(=S)n2-c1ccccc1", "1.68 µM (inactive)"),
    ("CC(=O)Oc1c(C)c2c(c3ncccc13)OC(C)C2 (stereo not drawn)", "21.1 µM (inactive)"),
    ("CC/C(=N/O)c1ccc(Br)s1", "> 100 µM (inactive)"),
    ("Cc1ccc(S(=O)(=O)NC2=NS(=O)(=O)c3cc(C)c(Cl)cc3S2)cc1", "> 100 µM (inactive)"),
    ("O=C1c2ccccc2C(=O)N1CCCCCCNOCCCN1C(=O)c2ccccc2C1=O", "30.3 µM (inactive)"),
    ("Nc1ncnc2c1ncn2CCCNO", "> 100 µM (inactive)"),
    ("Oc1ccc(Cl)cc1Cc1cc(Cl)cc(Cc2cc(Cl)ccc2O)c1O", "2.79 µM (inactive)"),
    ("COc1cc(C2SCC(=O)N2c2ccc(Cl)c(Cl)c2)cc(OC)c1OC (stereo not drawn)", "44.7 µM (inactive)"),
    ("CCOC(=O)c1[nH]cc(C)c1-c1ccn(-c2ccccc2)c1", "43.4 µM (inactive)"),
    ("Cc1nn(C(=O)c2ccccc2O)c2c1C(c1ccco1)SC(=N)N2 (stereo not drawn)", "> 10 µM (inactive)"),
    ("CCOC(=O)c1cn(C)c(=S)n2c1nc1ccccc12", "97.3 µM (inactive)"),
    ("c1ccc(C[P+]2(c3ccccc3)c3ccccc3-c3ccccc32)cc1", "> 100 µM (inactive)"),
    ("Cn1nc2c(c1N)Cc1c(nn(C)c1N)-c1ccccc1-2", "> 100 µM (inactive)"),
]
